All values here come from ChEMBL document CHEMBL1909630.

# Procedure Details: Cmax in Sprague-Dawley rat at 10 mg/kg, po
# Assay type: ADME, organism-based
# Parameters: dose 10 mg/kg, route oral
# Particulars: in vivo
Recorded Cmax for the following compounds
Field: numeric (ng/mL). Do not append units.

>>> measured_number("CCN(C)C(=O)c1ccc(-c2ccc3c(n2)Oc2ccccc2[C@@H]3C(C)(C)C(=O)Nc2nncs2)cc1F")
351

**Query** Look up Cmax of CN(C)C(=O)c1ccc(-c2ccc3c(n2)Oc2ccccc2[C@H]3C(C)(C)C(=O)Nc2nncs2)cc1F and report it.
**Result** 285

###

# Tested on: Blood
# Procedure Details: Antiinflammatory activity in human whole blood assessed as inhibition of IL-1beta-induced IL-8 production after overnight incubation by ELISA relative to Dexamethasone
# Type: functional
Measured Property: Imax (%)
Field: numeric (%). Do not append units.

**Query** Identify measured Imax obtained with Blood for CC(C)(C(=O)Nc1nncs1)[C@H]1c2ccccc2Oc2nc(-c3ccc(C(=O)N4CCCC4)c(F)c3)ccc21 .
**Result** 86

**Query** Identify measured Imax obtained with Blood for CCN(C)C(=O)c1ccc(-c2ccc3c(n2)Oc2ccccc2[C@@H]3C(C)(C)C(=O)Nc2nncs2)cc1F .
**Result** 88

**Query** Identify measured Imax obtained with Blood for CNC(=O)c1ccc(-c2ccc3c(n2)Oc2ccccc2[C@@H]3C(C)(C)C(=O)Nc2nncs2)cc1F .
**Result** 35

###

# Assayed Target: Glucocorticoid receptor (Homo sapiens, UniProt P04150)
# Sequence (P04150 whole entry, the tested form may be a part): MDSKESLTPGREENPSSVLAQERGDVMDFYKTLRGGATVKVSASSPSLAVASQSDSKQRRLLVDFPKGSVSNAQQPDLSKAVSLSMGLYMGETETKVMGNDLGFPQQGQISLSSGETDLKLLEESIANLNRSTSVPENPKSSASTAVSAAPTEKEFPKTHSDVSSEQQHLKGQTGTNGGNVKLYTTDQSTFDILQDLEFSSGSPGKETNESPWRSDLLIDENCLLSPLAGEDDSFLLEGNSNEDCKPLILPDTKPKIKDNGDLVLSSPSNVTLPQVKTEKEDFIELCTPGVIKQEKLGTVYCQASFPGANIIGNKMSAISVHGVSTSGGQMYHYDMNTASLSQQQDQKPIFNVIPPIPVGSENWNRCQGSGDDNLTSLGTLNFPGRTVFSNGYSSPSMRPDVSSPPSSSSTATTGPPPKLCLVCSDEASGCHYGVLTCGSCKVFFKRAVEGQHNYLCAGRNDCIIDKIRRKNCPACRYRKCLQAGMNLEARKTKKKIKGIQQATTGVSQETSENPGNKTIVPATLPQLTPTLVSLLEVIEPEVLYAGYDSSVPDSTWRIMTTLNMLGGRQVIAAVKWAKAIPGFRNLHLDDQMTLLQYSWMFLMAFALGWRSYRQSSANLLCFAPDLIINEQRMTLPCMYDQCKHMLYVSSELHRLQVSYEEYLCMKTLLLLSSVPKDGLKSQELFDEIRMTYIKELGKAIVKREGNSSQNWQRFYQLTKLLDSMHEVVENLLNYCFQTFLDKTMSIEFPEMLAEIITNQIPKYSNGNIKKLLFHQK
# Procedure Details: Transactivation activity at GR-alpha in human NP1 Hela cells assessed as induction of GAL4-DBD after 20 hrs by luciferase reporter gene assay
# Assay type: cell-based
Measured Property: pEC50
pEC50 is defined as minus the log10 of a concentration measured in mol/L.

>>> measured_number("CCc1ccc(-c2ccc3c(n2)Oc2ccccc2[C@H]3C(C)(C)C(=O)Nc2nncs2)cc1")
6.97
>>> measured_number("CN(C)C(=O)c1ccc(-c2ccc3c(n2)Oc2ccccc2[C@@H]3C(C)(C)C(=O)Nc2nncs2)cc1")
7.05
>>> measured_number("CC(C)Oc1ccc(-c2ccc3c(n2)Oc2ccccc2[C@H]3C(C)(C)C(=O)Nc2nncs2)cc1")
6.87

**Query** Look up pEC50 of CC(=O)c1ccc(-c2ccc3c(n2)Oc2ccccc2[C@@H]3C(C)(C)C(=O)Nc2nncs2)cc1 and report it.
**Result** 7.12

**Query** Look up pEC50 of Cc1ccc(-c2ccc3c(n2)Oc2ccccc2[C@@H]3C(C)(C)C(=O)Nc2nncs2)cc1 and report it.
**Result** 5.65

**Query** Look up pEC50 of CC(C)(C(=O)Nc1nncs1)[C@H]1c2ccccc2Oc2nc(-c3ccc(C(=O)N4CCC(F)(F)C4)c(F)c3)ccc21 and report it.
**Result** 6.72

**Query** Look up pEC50 of CN(C)C(=O)c1cnc(-c2ccc3c(c2)Oc2ccccc2C3C(C)(C)C(=O)Nc2nncs2)nc1 (racemic) and report it.
**Result** 6.22

**Query** Look up pEC50 of CC(C)(C(=O)Nc1nncs1)[C@H]1c2ccccc2Oc2nc(-c3ccc(C(=O)N4CCCC4)c(F)c3)ccc21 and report it.
**Result** 6.75

**Query** Look up pEC50 of CCN(C)C(=O)c1ccc(-c2ccc3c(n2)Oc2ccccc2[C@H]3C(C)(C)C(=O)Nc2nncs2)cc1 and report it.
**Result** 7.49

**Query** Look up pEC50 of CN(C)C(=O)c1ccc(-c2ccc3c(n2)Oc2ccccc2[C@H]3C(C)(C)C(=O)Nc2nncs2)cc1F and report it.
**Result** 6.62
